- Tested on: carbapenem-resistant A. baumannii (CRAB) SIPI-025
- Type: cell-based, Acinetobacter baumannii
- recorded-conditions: carbapenem-resistant (CRAB) SIPI-025, 20 h
Where a SMILES comes first, the peptide text is derived from it. [ ]: non-standard residue; d: D form. hArg = N=C(N)NCCCC[C@H](N)C(=O)O; 2Thi = N[C@@H](Cc1cccs1)C(=O)O; Dab = NCC[C@H](N)C(=O)O; Dap = NC[C@H](N)C(=O)O
The following molecules are listed with their measured MIC values.

{"molecule": "CC(C)C[C@H](NC(=O)[C@H](Cc1ccc(O)cc1)NC(=O)[C@H](CCN)NC(=O)[C@H](CC(C)C)NC(=O)[C@H](CC(C)C)NC(=O)[C@H](CCN)NC(=O)[C@H](CN)NC(=O)[C@H](Cc1cccs1)NC(=O)[C@H](CC(C)C)NC(=O)[C@H](CCCNC(=N)N)NC(=O)[C@@H](N)CCN)C(=O)N[C@@H](CCCCNC(=N)N)C(=O)N[C@@H](CCN)C(=O)N[C@@H](Cc1ccccc1)C(N)=O [UP15] (H-[Dab]RL[2Thi][Dap][Dab]LL[Dab]YL[hArg][Dab]F-NH2)", "MIC": "2 µg/mL"}
{"molecule": "CC(C)C[C@H](NC(=O)[C@H](Cc1ccc(O)cc1)NC(=O)[C@H](CCCCN)NC(=O)[C@H](CC(C)C)NC(=O)[C@H](CC(C)C)NC(=O)[C@@H](CCCCN)NC(=O)[C@@H](CCCCN)NC(=O)[C@H](Cc1ccccc1)NC(=O)[C@H](CC(C)C)NC(=O)[C@H](CCCNC(=N)N)NC(=O)[C@@H](N)CCCCN)C(=O)N[C@@H](CCCNC(=N)N)C(=O)N[C@H](CCCCN)C(=O)N[C@@H](Cc1ccccc1)C(N)=O [DP04] (H-KRLF[dK][dK]LLKYLR[dK]F-NH2)", "MIC": "1 µg/mL"}
